Source: paper PMC5558211

Biological target: BrdT(1) (Homo sapiens)
Assay: Fluorescence anisotropy competition assay with BI-BODIPY tracer
Type: binding
measurement_type: binding by fluorescence anisotropy

Cc1ccc(C2C3=C(COC3=O)Nc3c2c(=O)n(C)c(=O)n3C)cc1 (stereo not shown)
inactive
CCn1c2c(c(=O)n(C)c1=O)C(c1ccc(C)cc1)C1=C(COC1=O)N2 (stereo not shown)
inactive
COc1ccc(C2C3=C(COC3=O)Nc3c2c(=O)n(C)c(=O)n3C)cc1 (stereo not shown)
inactive
